# Tested on: NCI-H322M lung
# TEST: NCI-60 one-dose screen, 48 h (100 = growth as untreated, 0 = no growth, -100 = all killed)
# EXPERIMENTAL CONTEXT: 10 µM unless noted
The panel holds about 83,000 compounds, 20% with a hit somewhere; the sample as a whole holds those more often. Active and inactive are the calls of the source. Rule for the calls: active = growth percent below 10; inactive = the rest.
READOUT KIND: growth

Known growth results, listed for orientation:
| SMILES INPUT | RESULT |
| --- | --- |
| COc1ccc(NC(=O)c2ccc3c(c2)nc(-c2cc4ccccc4[nH]c2=O)n3-c2cc(C(C)(C)C)[nH]n2)cc1 | 91.7% (inactive) |
| C[C@]12CC[C@@H]3c4ccc(O)cc4CC[C@H]3[C@@H]1C[C@H](O)[C@@H]2O | 88.7% (inactive) |

Now turn to the next compound.
Query: GET /values?readout=growth&item= "CC(C)=CCC/C(C)=C/CC/C(C)=C/CSC[C@H](NC(=O)CCCCCN1CCN(C)CC1)C(=O)NC1CCCCCC1"
Reply: 88.7% (inactive)

====

# System: SN12C renal
# TEST: NCI-60 one-dose screen, 48 h (100 = growth as untreated, 0 = no growth, -100 = all killed)
# EXPERIMENTAL CONTEXT: 10 µM unless noted
The panel holds about 83,000 compounds, 20% with a hit somewhere; the sample as a whole holds those more often. Calls of active or inactive are those of the source. Rule for the calls: active = growth percent below 10; inactive = the rest.
READOUT KIND: growth

Here's what some known entries look like.
| COMPOUND | growth |
| --- | --- |
| CC1(C)c2ccccc2C(=O)C1(Br)Cc1ccccc1 (centres undefined) | 95.4% (inactive) |
| N=C(N)c1ccc(S(N)(=O)=O)cc1 | 94.5% (inactive) |
| c1csc(-c2nc(-c3cc4ccccc4c(N4CCOCC4)n3)cs2)c1 | 92.4% (inactive) |
| O=C(O[C@@H]1Cc2c(O)cc(O)cc2O[C@@H]1c1cc(O)c(O)c(O)c1)c1cc(O)c2c(c1)OCO2 | 98.6% (inactive) |
| COc1cnc2c(c1)C(=O)c1c-2n(CCCNC2=NCCS2)c(=O)c2cc([N+](=O)[O-])ccc12 | 13.5% (inactive) |

Query: Could you share which growth value was measured for "COc1ccc(NC(=O)c2ccoc2COc2ccccc2)cc1" ?
Reply: 94% (inactive)

Query: Consider the compound "COc1c(N)c2c(c([N+](=O)[O-])c1OC)C(=O)OC2" and give its measured growth.
Reply: 93.5% (inactive)

Query: Form field: reported growth of "COc1cc(-c2cc3cc(O)ccc3oc2=O)cc(OC)c1OC"
Reply: 93.6% (inactive)

Query: // growth lookup, key: "CC1(C)C=CC[C@]2(C)[C@H]3CC[C@@H]4[C@H]5[C@H](C(=O)/C=C/c6cccnc6)CC[C@]5(CO)CC[C@@]4(C)[C@]3(C)CC[C@@H]12"
Reply: -40% (active)

Query: Look up growth: "O=C(NO)c1ccc(Cn2c(=O)n(CCc3ccc(O)cc3)c(=O)c3ccccc32)cc1"
Reply: 79% (inactive)

====

# Test system: COLO 205 colon
# TEST: NCI-60 one-dose screen, 48 h (100 = growth as untreated, 0 = no growth, -100 = all killed)
# EXPERIMENTAL CONTEXT: 10 µM unless noted
This is part of a sample that, as a whole, favours compounds with a hit. Of some 83,000 tested, about 20% had one in any assay.
Each entry gets NO if its growth stays under -50%, and YES if its growth is -50% or above.

Reference set, count: 3
| SMILES INPUT | SYSTEM NAME | QUALITATIVE LABEL |
| --- | --- | --- |
| C#CCN=C[C@]12CC[C@@H](C(=C)C)[C@@H]1[C@H]1CC[C@@H]3[C@@]4(C)CCC(=O)C(C)(C)[C@@H]4CC[C@@]3(C)[C@]1(C)CC2 | COLO 205 colon | YES |
| Oc1cccc2oc(=S)[nH]c12 | COLO 205 colon | YES |
| CCCCC[C@H]1C/C=C2/C(=O)C(Cl)=C[C@@H]2C/C=C\CCCC(=O)O1 | COLO 205 colon | NO |

Query: Decide: is the reported value of growth for "CC1(C)C(=O)/C(=C\c2ccco2)C[C@]2(C)[C@H]3CC[C@@H]4[C@@H](C(=O)/C=C/c5ccco5)CC[C@@]4(C)[C@]3(C)CC[C@@H]12" equal to or greater than -50%?
Reply: NO

Query: Determine whether measured growth meets or exceeds -50% for "Cc1cc(C=O)c(C)c2c1[nH]c1ccccc12"
Reply: YES
